- System: A549/ATCC NSCLC
- Assay details: NCI-60 one-dose screen, 48 h
- Test parameters: 10 µM unless noted
The panel holds about 83,000 compounds, 20% with a hit somewhere; the sample as a whole holds those more often. Activity calls are given as the source filed them. Rule for the calls: active = growth percent below 10; inactive = the rest.
Parameter call: string, one of active, inactive

# outcome recorded in this test, key = N#Cc1c(N)n2c(nc1=Nc1ccc(Cl)cc1)sc1cc(Cl)ccc12
inactive

# outcome recorded in this test, key = CCN(CC)CC(=O)Nc1cccc(C(=O)OC(C)C)c1
inactive

# outcome recorded in this test, key = Nc1nc(N)c(-c2ccc(Cl)cc2)c(/C=C/c2ccc([N+](=O)[O-])cc2)n1
inactive

# outcome recorded in this test, key = COC(=O)[C@]12CC[C@@H](C)[C@H](C)[C@@H]1C1=CC[C@@H]3[C@@]4(C)C(C=O)=C[C@@](C)(CO)C4=CC[C@@]3(C)[C@]1(C)CC2
inactive

# outcome recorded in this test, key = O=c1oc2ccc(Cl)cc2cc1-c1cs/c(=N/N=C\c2ccc(Cl)cc2)n1/N=C/c1ccc(Cl)cc1
inactive

# outcome recorded in this test, key = COc1ccc(C2CC(c3ccccc3)=NN2c2nc(C)c(C(C)=O)s2)cc1 (configuration not stated)
inactive

# outcome recorded in this test, key = CN1C(=O)CCC(N2C(=O)c3cccc(NCCOCCOCCNC(=O)c4cc5c(o4)C(=O)c4ccccc4C5=O)c3C2=O)C1=O (configuration not stated)
active

# outcome recorded in this test, key = Nc1nc(Nc2ccc(Cl)cc2)nn1S(=O)(=O)c1ccc(-c2ccc(F)cc2)cc1
inactive

# outcome recorded in this test, key = COc1cc2c(cc1OC)-c1ccc3cc4c(cc3c1N(CCN(C)C)C2)OCO4
active

# outcome recorded in this test, key = Cc1c(Cl)cccc1NS(=O)(=O)c1ccccc1
inactive

# outcome recorded in this test, key = O=C(c1ccccc1)c1ccc(N2C(=O)C3C4c5ccccc5C(/C=C/C(=O)c5ccccn5)(c5ccccc54)C3C2=O)cc1 (configuration not stated)
inactive

# outcome recorded in this test, key = COc1ccc(-c2nc3sccn3c2/C=C/C(=O)c2c[nH]c3ccccc23)cc1
inactive

# outcome recorded in this test, key = Cc1ccc(S(=O)(=O)Nc2sccc2-c2nc(-c3ccccc3)no2)cc1
inactive

# outcome recorded in this test, key = NC(=O)c1c(NC(=O)c2ccc(C(F)(F)F)cc2Cl)sc2c1CCC(=O)C2
active

# outcome recorded in this test, key = Cc1c2c(cn1Cc1ccccc1)CCc1cn(C)nc1-2
inactive

# outcome recorded in this test, key = C=C1C(=O)O[C@H]2[C@H]1CC/C(C(=O)NCCCCCCCCNC(=O)/C1=C/CC[C@@]3(C)O[C@H]3[C@H]3OC(=O)C(=C)[C@@H]3CC1)=C\CC[C@@]1(C)O[C@@H]21
inactive

# outcome recorded in this test, key = O=[N+]([O-])c1ccccc1C(O)Cc1ccc2ccccc2n1 (configuration not stated)
inactive

# outcome recorded in this test, key = CCN1CCN(c2ccc(Nc3cc(-c4cccnc4Nc4c(Cl)c(OC)cc(OC)c4Cl)ncn3)cc2)CC1
inactive

# outcome recorded in this test, key = Cc1ccccc1NC(=O)CN(C)C
inactive

# outcome recorded in this test, key = COc1ccc(/C(C)=N/NS(=O)(=O)c2ccc(C)cc2)cc1OC
inactive

# outcome recorded in this test, key = CCN(CC)CCOc1ccc(/C(=C(\C)c2ccc(F)c(OC)c2)c2ccc(Cl)cc2)cc1
inactive

# outcome recorded in this test, key = c1ccc(-c2oc3ccccc3c2-c2ccccc2)cc1
inactive

# outcome recorded in this test, key = Clc1ccc2c(NCCCN3CCN(c4nc(-n5ccnc5)nc5ccccc45)CC3)ccnc2c1
inactive

# outcome recorded in this test, key = CC(C)c1ccc(NC(=O)Cc2ccc(Nc3ncnc4cc(-c5cnn(CCN(C)C)c5)ccc34)cc2)cc1
active

# outcome recorded in this test, key = CN1C[C@@H](c2ccc(Cl)cc2)[C@]2(NC(=S)N(c3ccc(F)c(Cl)c3)C2=O)[C@@]12C(=O)NC1C=CC(Cl)=C[C@H]12 (some centres not stated)
inactive

# outcome recorded in this test, key = O=C1CC(c2ccc3c(c2)OCO3)Nc2cc3c(cc21)OCO3 (configuration not stated)
inactive

# outcome recorded in this test, key = Cc1c(C)c2c(c(C)c1NC(=O)/C=C\C(=O)O)CCC(C)(CCCC(C)CCCC(C)CCCC(C)C)O2 (configuration not stated)
inactive

# outcome recorded in this test, key = C[C@]12CCC(=O)C[C@H]1CC[C@@H]1[C@@H]2CC[C@@]2(C)[C@H]1CC[C@]2(O)C(=O)CO
inactive

# outcome recorded in this test, key = Cc1ccc2c(n1)C(=O)C(Oc1ccc(F)cc1)=CC2=O
inactive

# outcome recorded in this test, key = COc1ccc(-n2sc(=O)n(Cc3ccc(COC(=O)C(C)c4ccc(CC(C)C)cc4)cc3)c2=O)cc1 (configuration not stated)
inactive

# outcome recorded in this test, key = COc1ccc(-c2cn(-c3cccc(C(=O)/C=C/c4cc(OC)c(OC)c(OC)c4)c3)c(=O)[nH]2)cc1
inactive

# outcome recorded in this test, key = COc1ccc(-c2nc3sc4c(c3c(=O)[nH]2)CCCC4)c2ccccc12
inactive

# outcome recorded in this test, key = O[C@H]1CO[C@H]2[C@@H]1OC[C@@H]2Oc1ccc(Nc2ccnc(Nc3ccc(O[C@H]4CO[C@H]5[C@@H]4OC[C@@H]5O)c(Cl)c3)n2)cc1Cl
inactive

# outcome recorded in this test, key = CN(C)c1cnccn1
inactive

# outcome recorded in this test, key = Cc1ccc(-n2nnc(C3=NCCc4c3[nH]c3ccc(Cl)cc43)c2C)cc1
inactive

# outcome recorded in this test, key = Nc1ccc(S(=O)(=O)Nc2ccsc2-c2nc(-c3ccccc3)no2)cc1
inactive

# outcome recorded in this test, key = CNC(=O)c1c(NC(=O)c2ccc(C(C)(C)C)cc2)sc2c1CCC(=O)C2
inactive
